In this section, each of the compounds is paired with its reported IC50.
tested on: HCV replicon; assay: HCV replicon luciferase reporter assay; assay type: cell-based; conditions: Hepatitis C virus, Table 5; read-out: IC50

{"columns": ["Compound", "IC50"],
 "data": [
  ["CCCCNC(=O)c1ccc(C(=O)NCCNc2nsc3ccccc23)cc1 [Compound 422]", "< 5 µM"],
  ["COc1ccc(-c2cccc(CNCCCNc3nsc4ccccc34)c2)cc1OC [Compound 301]", "< 5 µM"],
  ["CC(C)[C@H](NC(=O)OC(C)(C)C)C(=O)NCCNc1nsc2ccccc12 [Entry 18]", "< 5 µM"],
  ["O=S(=O)(NCCCNc1nsc2ccccc12)c1cccc(OC(F)(F)F)c1 [Compound 266]", "< 5 µM"],
  ["CCCCc1ccc(C(=O)NCCCNc2n[s+]([O-])c3ccccc23)cc1 (stereo not shown) [Compound 321]", "> 5 µM"],
  ["O=C(Cc1c[nH]c2ccccc12)NCCNc1nsc2ccccc12 [Entry 82]", "> 5 µM"],
  ["CCCCc1ccc(C(=O)NCCNc2nsc3ccccc23)nc1 [Compound 279]", "< 5 µM"],
  ["O=C(NCCNc1nsc2ccccc12)c1cccc(Cl)c1 [Entry 33]", "> 5 µM"],
  ["O=Cc1cccc(C(=O)NCCNc2nsc3ccccc23)c1 [Compound 414]", "> 5 µM"],
  ["O=C(NCCCNc1nsc2ccccc12)c1ccc(F)cc1 [Entry 234]", "< 5 µM"],
  ["COc1ccc(Cl)cc1-c1cccc(CNCCCNc2nsc3ccccc23)c1 [Compound 302]", "< 5 µM"],
  ["COc1ccc(-c2ccc(CN(CCCNC3=NS(=O)(=O)c4ccccc43)S(=O)(=O)c3cn(C)c(C)n3)cc2)cc1 [Compound 340]", "> 5 µM"],
  ["COc1cccc(S(=O)(=O)N(C)CCCN(C)c2nsc3ccccc23)c1 [Compound 344]", "> 5 µM"],
  ["COc1cccc(-c2cccc(C(=O)NCCCNc3nsc4ccccc34)c2)c1OC [Compound 369]", "< 5 µM"],
  ["COc1ccc(Cl)cc1-c1ccc(C(=O)NCCNc2nsc3ccccc23)cc1 [Compound 362]", "< 5 µM"],
  ["CCCNc1ccc(C(=O)NCCCNc2nsc3ccccc23)cc1 [Compound 290]", "< 5 µM"],
  ["COc1cc(F)ccc1-c1cccc(C(=O)NCCCNc2nsc3ccccc23)c1 [Compound 368]", "< 5 µM"],
  ["O=C(NCCCNc1nsc2ccccc12)c1cccc(F)n1 [Compound 420]", "> 5 µM"],
  ["COc1ccc(-c2ccc(CN(CCCNc3nsc4ccccc34)C(=O)CC3CCCN3)cc2)cc1 (stereo not shown) [Compound 320]", "< 5 µM"],
  ["COc1ccccc1-c1ccc(NC(=O)NCCCNc2nsc3ccccc23)cc1 [Compound 395]", "< 5 µM"],
  ["CN(CCCN(C)S(=O)(=O)c1ccccc1C(F)(F)F)c1nsc2ccccc12 [Compound 345]", "> 5 µM"],
  ["CCCCc1ccc(C(=O)NCCNc2nsc3ccc(Cl)cc23)cc1 [Compound 421]", "< 5 µM"],
  ["COc1ccc(-c2cccc(C(=O)NCCCNc3nsc4ccccc34)c2)cc1 [Compound 378]", "< 5 µM"],
  ["COc1ccc(CNS(=O)(=O)c2ccc3snc(NCCCNC(=O)c4ccc(-c5ccc(OC)cc5)cc4)c3c2)cc1 [Compound 515]", "> 5 µM"],
  ["CCCOc1ccc(F)cc1-c1ccc(C(=O)NCCNc2nsc3ccccc23)cc1 [Compound 367]", "< 5 µM"]
]}

###

tested on: HCV replicon; test: HCV replicon luciferase reporter assay; assay type: cell-based; conditions: Hepatitis C virus, Table 5; read-out: IC50

{"columns": ["Compound Structure String", "IC50"],
 "data": [
  ["O=C(O)c1cccc(C(=O)NCCNc2nsc3ccccc23)n1", "> 5 µM"],
  ["O=C(NCCCNc1nsc2ccccc12)c1ccc(O)c(Br)c1", "< 5 µM"],
  ["Cc1cccc(NCCCNc2nsc3ccccc23)n1", "< 5 µM"],
  ["COc1ccc(-c2ccc(CN(C)CCCN(C)c3nsc4ccccc34)cc2)cc1", "> 5 µM"],
  ["CC(C)Nc1ccc(C(=O)NCCCNc2nsc3ccccc23)cc1", "< 5 µM"],
  ["O=C(NCCCNc1nsc2ccccc12)c1ccc(O)nc1", "> 5 µM"],
  ["N#Cc1ccnc(NCCCNc2nsc3ccccc23)c1", "< 5 µM"]
]}

###

system: HCV replicon; assay: HCV replicon luciferase reporter assay; assay type: cell-based; settings: Hepatitis C virus, Table 5; read-out: IC50
pIC50: −log10 of the molar value.
In this section, each of the compounds is paired with its reported pIC50.
Measured Endpoint: pIC50

{"columns": ["Compound", "Measured Endpoint", "Measurement"],
 "data": [
  ["CC(C)[C@H](N)C(=O)NCCNc1nsc2ccccc12 [Entry 75]", "pIC50", "< 5.30"],
  ["O=C(NCCCNc1nsc2ccccc12)c1cccc(C2=CCNCC2)c1 [Compound 394]", "pIC50", "> 5.30"],
  ["O=C(NCCNc1nsc2ccccc12)c1ccc2ccccc2n1 [Entry 79]", "pIC50", "< 5.30"],
  ["Cn1c(C(=O)NCCNc2nsc3ccccc23)cc2ccccc21 [Compound 412]", "pIC50", "> 5.30"],
  ["CCCCNc1cccc(C(=O)NCCCNc2nsc3ccccc23)n1 [Compound 448]", "pIC50", "< 5.30"]
]}
